Hey, just so you know, these numbers are from paper PMC6172315.

Collected IC50 values appear next to each entry.
# test.system: D. plexippus-Na^+/K^+-ATPase (Danaus plexippus, UniProt K0G7C4)
# Sequence (K0G7C4 1-1009): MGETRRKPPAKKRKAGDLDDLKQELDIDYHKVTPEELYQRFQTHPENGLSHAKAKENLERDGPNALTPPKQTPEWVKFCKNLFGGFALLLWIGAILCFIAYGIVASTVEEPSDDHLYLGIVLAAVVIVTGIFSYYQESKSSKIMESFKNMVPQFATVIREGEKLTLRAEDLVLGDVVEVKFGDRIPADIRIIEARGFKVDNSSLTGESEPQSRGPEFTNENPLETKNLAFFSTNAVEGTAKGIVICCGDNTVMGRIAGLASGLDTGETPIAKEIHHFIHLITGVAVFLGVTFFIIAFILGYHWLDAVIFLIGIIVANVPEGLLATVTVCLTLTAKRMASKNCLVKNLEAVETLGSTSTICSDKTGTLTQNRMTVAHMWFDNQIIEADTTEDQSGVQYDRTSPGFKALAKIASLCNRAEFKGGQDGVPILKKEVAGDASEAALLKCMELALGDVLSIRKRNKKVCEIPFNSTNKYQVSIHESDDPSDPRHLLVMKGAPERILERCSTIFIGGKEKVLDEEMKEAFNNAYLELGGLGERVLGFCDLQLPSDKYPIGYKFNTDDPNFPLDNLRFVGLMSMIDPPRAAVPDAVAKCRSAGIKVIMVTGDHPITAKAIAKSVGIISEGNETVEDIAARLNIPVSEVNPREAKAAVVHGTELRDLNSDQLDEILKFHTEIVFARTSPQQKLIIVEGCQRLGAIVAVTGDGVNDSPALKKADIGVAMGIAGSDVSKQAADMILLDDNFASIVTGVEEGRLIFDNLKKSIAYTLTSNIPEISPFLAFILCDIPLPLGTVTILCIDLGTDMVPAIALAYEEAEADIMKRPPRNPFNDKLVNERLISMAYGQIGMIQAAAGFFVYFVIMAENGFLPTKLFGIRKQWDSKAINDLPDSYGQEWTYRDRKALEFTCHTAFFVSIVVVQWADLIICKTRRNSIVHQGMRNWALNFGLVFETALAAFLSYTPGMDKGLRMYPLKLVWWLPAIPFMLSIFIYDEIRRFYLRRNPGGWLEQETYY
# test.name: In vitro inhibition assay of D. plexippus Na+/K+-ATPase (phosphate release)
# measurement.context: read-out: IC50 D. plexippus- Na^+/K^+-ATPase; Na+/K+-ATPase extracted from butterfly brains

Tell me the measured IC50 of "CO[C@H]1C[C@H](O[C@H]2CC[C@]3(C=O)[C@H]4CC[C@]5(C)[C@@H](C6=CC(=O)OC6)CC[C@]5(O)[C@@H]4CC[C@]3(O)C2)O[C@H](C)[C@H]1O" , please.
6.99 µM

Tell me the measured IC50 of "C[C@@H]1C[C@H](O)[C@]2(O)O[C@@H]3C[C@@]4(C=O)[C@@H](CC[C@@H]5[C@@H]4CC[C@]4(C)[C@@H](C6=CC(=O)OC6)CC[C@]54O)C[C@H]3O[C@@H]2O1" , please.
5.36 µM

Tell me the measured IC50 of CC(=O)O[C@H]1C[C@H](O[C@H]2[C@@H](O)C[C@H](O[C@H]3[C@@H](O)C[C@H](O[C@H]4CC[C@@]5(C)[C@H](CC[C@@H]6[C@@H]5C[C@@H](O)[C@]5(C)[C@@H](C7=CC(=O)OC7)CC[C@]65O)C4)O[C@@H]3C)O[C@@H]2C)O[C@H](C)[C@H]1O[C@@H]1O[C@H](CO)[C@@H](O)[C@H](O)[C@H]1O [lanatoside C, reference compound] , please.
644 µM

Tell me the measured IC50 of CC12CC(O)C3C(CCC4(O)CC(O)CC(O)C34CO)C1(O)CCC2C1=CC(=O)OC1 (stereo not shown) , please.
841 µM

Tell me the measured IC50 of "C[C@]12CC[C@H](O)C[C@H]1CC[C@@H]1[C@@H]2CC[C@]2(C)[C@@H](C3=CC(=O)OC3)[C@@H](O)C[C@]12O" , please.
256 µM

Tell me the measured IC50 of "C[C@]12CC[C@H](O)C[C@H]1CC[C@@H]1[C@@H]2C[C@@H](O)[C@]2(C)[C@@H](C3=CC(=O)OC3)CC[C@]12O" , please.
379 µM

Tell me the measured IC50 of C[C@@H]1O[C@@H](O[C@H]2C[C@@H](O)[C@]3(CO)[C@H]4[C@H](O)C[C@]5(C)[C@@H](C6=CC(=O)OC6)CC[C@]5(O)[C@@H]4CC[C@]3(O)C2)[C@H](O)[C@H](O)[C@H]1O [ouabain, reference compound] , please.
94 µM
